# assay.remarks: DRD fibroblast viability loss – cell-based, non-viral oncogenic, luminescence, dose response (AID 1934)
# Assay type: functional
# condition.details: Homo sapiens
The source made the active and inactive calls.
Measured EC50 accompanies every entry in the list below.
parameter: EC50

>>> print(df.to_string())
                                   compound  parameter             result
0  CCCCn1cnc2c(c(-c3ccccc3)c(-c3ccccc3)n2Cc2ccco2)c1=N       EC50   9.06 µM (active)
1     N/C(=C\C(=O)c1cc(Cl)ccc1O)C(Cl)(Cl)Cl       EC50   5.12 µM (active)
2  COc1cc2c(c(OC)c1OC)-c1ccc(OC)c(=O)cc1C(NC(C)=O)CC2 (centres undefined)       EC50  0.351 µM (active)
3  C[S+]([O-])c1nc(-c2ccc(Br)cc2)cc(-c2ccccc2)c1C#N (centres undefined)       EC50   2.91 µM (active)

----------
# system.tested: Orexin receptor type 2 (Homo sapiens)
# Sequence (O43614 whole entry): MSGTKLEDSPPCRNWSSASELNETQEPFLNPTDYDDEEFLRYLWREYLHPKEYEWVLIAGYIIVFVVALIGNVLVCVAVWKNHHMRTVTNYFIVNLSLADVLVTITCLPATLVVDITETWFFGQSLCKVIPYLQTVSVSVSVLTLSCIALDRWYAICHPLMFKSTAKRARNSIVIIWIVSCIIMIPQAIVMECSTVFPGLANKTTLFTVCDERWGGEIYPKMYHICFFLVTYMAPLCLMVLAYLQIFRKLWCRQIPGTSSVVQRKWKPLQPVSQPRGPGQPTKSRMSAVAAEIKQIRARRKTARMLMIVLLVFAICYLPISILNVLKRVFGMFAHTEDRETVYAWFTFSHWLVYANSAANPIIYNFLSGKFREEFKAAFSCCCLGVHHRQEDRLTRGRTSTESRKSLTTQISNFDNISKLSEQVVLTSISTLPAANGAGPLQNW
# assay.remarks: Counterscreen assay for antagonists of the orexin 1 receptor (OX1R; HCRTR1): Fluorescence-based cell-based dose response assay for antagonists of the orexin 2 receptor (OX2R; HCRTR2), run by assay provider.
# Assay type: functional
Active and inactive are the calls of the source.
Outcomes: label 1 (active), label 0 (inactive)

                            molecule_smiles  assigned_label
0  Cc1c(C(=O)Nc2ccc(N3CCOCC3)cc2)oc2ccccc12         label 0
1  O=C(N/N=C/c1c(Cl)[nH]c2ccccc12)c1sc2ccccc2c1Cl         label 0
2  Cc1nn(-c2ccccc2)c(C)c1/C=N/NC(=O)c1cc(-c2cccs2)[nH]n1         label 0
3      COC(=O)c1ccccc1NC(=O)c1sc(=S)n(C)c1N         label 1

----------
Entries with their measured AC50, system Cytochrome P450 2C9 (Homo sapiens):
parameter: AC50

                                    compound                   result
 0        O=C(O)c1cccc(SSc2cccc(C(=O)O)c2)c1      2 µM (inconclusive)
 1              C=CCSc1nn2c(=O)c3ccccc3nc2s1   25.1 µM (inconclusive)
 2           C/C(=N/NC(=O)Cc1cccn1C)c1ccccc1   25.1 µM (inconclusive)
 3  O=C1Oc2ccccc2C2(O)C3CCCCCC3C12 (centres undefined)   22.4 µM (inconclusive)
 4   CC(=O)Nc1ccc(C(=O)NNC(=O)CCc2ccccc2)cc1   39.8 µM (inconclusive)
 5  Cc1ccc(S(=O)(=O)N(CC(=O)N/N=C/c2ccc(F)cc2)c2cccc3cccnc23)cc1   1.58 µM (inconclusive)
 6  O=C(O)[C@H]1CCc2ccc3ccccc3c2[C@H]1c1cccc2ccccc12   7.94 µM (inconclusive)
 7  Cc1sc2nc(SCc3nc(-c4cccs4)no3)n(-c3ccccc3)c(=O)c2c1C  0.501 µM (inconclusive)
 8  COc1cc2c(cc1OC)C(C(=O)N1CCN(c3ccccn3)CC1)C(c1cccs1)N(C)C2=O (centres undefined)   17.8 µM (inconclusive)
 9    COc1cccc(-c2ccc3ncnc(NCc4cccs4)c3c2)c1  0.631 µM (inconclusive)
10              O=[N+]([O-])c1cccnc1N1CCCCC1   3.16 µM (inconclusive)
11  O=C(Nc1nc2ccc(F)cc2s1)C1CCCO1 (centres undefined)   39.8 µM (inconclusive)
12       O=C(CSc1nccn1-c1ccccc1)c1ccc(Cl)cc1   3.98 µM (inconclusive)
13          O=Nc1ccc(NOC(=O)c2ccc(Br)cc2)cc1   25.1 µM (inconclusive)
14  O=C(C1CCN(S(=O)(=O)c2cccc3nsnc23)CC1)N1CCn2c1nc1ccccc12   25.1 µM (inconclusive)
15  Cc1cccc(-n2c(S)nnc2Cn2nc(C)c([N+](=O)[O-])c2C)c1   7.08 µM (inconclusive)
16          COCCn1c(=O)c(-c2cccs2)nc2cncnc21     20 µM (inconclusive)
17  CCOC(=O)C1=C(N)n2c(s/c(=C/c3ccccc3)c2=O)=C(C(=O)OCC)C1c1ccccc1 (centres undefined)   2.82 µM (inconclusive)
18  C[C@H](CO)NC(=O)[C@H](C)[C@H]1C[C@]1(C)[C@H](NC(=O)OCc1ccccc1)c1ccccc1   25.1 µM (inconclusive)
